Quick note: these are pIC50 numbers for system: Mtb Ag85C (Mycobacterium tuberculosis, UniProt P9WQN9)
Sequence (P9WQN9 46-340 limits assumed): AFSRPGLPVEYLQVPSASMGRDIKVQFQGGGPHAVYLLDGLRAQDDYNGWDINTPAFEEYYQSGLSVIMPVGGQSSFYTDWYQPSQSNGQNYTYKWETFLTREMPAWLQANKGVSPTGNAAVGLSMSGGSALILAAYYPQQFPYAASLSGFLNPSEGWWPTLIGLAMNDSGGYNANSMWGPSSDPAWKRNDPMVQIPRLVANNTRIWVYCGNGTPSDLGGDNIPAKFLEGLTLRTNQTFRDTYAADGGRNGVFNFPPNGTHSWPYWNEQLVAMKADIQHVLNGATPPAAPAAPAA
pIC50: −log10 of the molar value.

{"columns": ["COMPOUND", "QUALIFIER", "pIC50"],
 "data": [
  ["O=c1c2ccccc2[se]n1-c1ccccc1 [1a, 2-Phenylbenzo[d][1,2]selenazol-3(2H)-one, reference compound]", "=", 5.29],
  ["O=C(CCCCC1SC[C@@H]2NC(=O)N[C@H]12)NCCOCCOCCOCCNC(=O)CCC(=O)N1Cc2ccccc2-c2nnn(-c3ccc(-n4[se]c5ccccc5c4=O)cc3)c2-c2ccccc21 (some centres unmarked)", "=", 5.69],
  ["COc1ccc(Cn2[se]c3ccccc3c2=O)cc1", "=", 6.27],
  ["[N-]=[N+]=Nc1ccc(-n2[se]c3ccccc3c2=O)cc1", "=", 5.96],
  ["O=c1c2ccccc2[se]n1C1CCCC1", "=", 5.39],
  ["O=c1c2ccccc2[se]n1-c1ccc(F)cc1", "=", 6.14],
  ["O=c1c2ccccc2[se]n1C1CCCCC1", "=", 5.43],
  ["COc1ccc(-n2[se]c3ccccc3c2=O)cc1", "=", 5.92],
  ["CC(C)(C)n1[se]c2ccccc2c1=O", "=", 5.82],
  ["O=c1c2ccccc2[se]n1-c1ccccc1F", "=", 6.00],
  ["[N-]=[N+]=Nc1ccc(NC(=O)c2ccccc2[Se]C#Cc2ccccc2)cc1", "<", 4.00],
  ["O=c1c2ccccc2[se]n1Cc1ccccc1 [1e, 2-Benzylbenzo[d][1,2]selenazol-3(2H)-one]", "=", 5.19],
  ["COc1ccccc1Cn1[se]c2ccccc2c1=O", "=", 4.54],
  ["O=c1c2ccccc2[se]n1CC1CCCCC1", "=", 5.28]
]}
